Test: NCI Yeast Anticancer Drug Screen. Data for the cln2 rad14 strain (AID 165);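 note: 0% = growth equal to vehicle treated cultures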
Details: S. cerevisiae cln2 rad14 strain, at 50.0 µM, active compounds read high
The panel holds about 79,000 compounds, 15% with a hit somewhere; the sample as a whole holds those more often.
resultType: growth inhibition (%)
Give bare numbers, in %.

compound	outputUnit	growth inhibition
COC(=O)c1cccc2c1C(=O)c1ccccc1-2	%	71.2

Hey, can you go through the list below and give me growth inhibition for every item?
1. COC(=O)CSC(=S)Nc1ccc(Cl)cc1
2. C/C=C/C/C=C/CCC(=O)C1OC1C(N)=O (stereo not given)

1. -74.6
2. 91.4

Please report growth inhibition for every entry that follows.
1. CCCCCCCCCCCCCCCCCCOC(=O)C(N)Cc1ccccc1 (stereo not given)
2. COC(=O)C(=O)C(/C=N/C(=S)NCCc1ccc(OC)c(OC)c1)=C(/O)c1ccc([N+](=O)[O-])cc1

1: -7.75; 2: 30.9

Please state growth inhibition for every compound in the list that follows.
1. CC1(CO)CCCC2(C)C1CCC1CC3C=CC12C1C(=O)OC(=O)C31 (stereo not given)
2. CC(NC(=O)C(Cc1ccccc1)NC(=O)c1ccc[n+](Cc2ccccc2)c1)C(N)=O (stereo not given)
3. O=S(=O)(Nc1ccccc1C(F)(F)F)c1ccc(F)cc1

[27.8, -4.7, 33.4]

Could you tell me growth inhibition for each of these compounds? They are listed below.
1. O.O.O=Cc1cc(Br)cc(Br)c1O.O=Cc1cc(Br)cc(Br)c1O.[Co]
2. C1CCC(C2CCC(N3CCCCC3)CC2)CC1 (stereo not given)

[89.5, 75.6]

----------
Field: growth inhibition. Provide a value for each of the compounds that follow.
Assay: NCI Yeast Anticancer Drug Screen. Data for the rad50 strain (AID 155);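 note: 0% = growth of vehicle-only cultures of the same strain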
Details: S. cerevisiae rad50 strain growth inhibition; at 5.0 µM (retest, dose inferred, filed as 0.5); active compounds read high
Procedure: Growth inhibition of yeast strains with defined genetic alterations is measured as a screen for potential anti-cancer activity. Selected strains with alterations in DNA damage repair or cell cycle control were exposed to compounds and growth inhibition was measured relative to vehicle treated controls. The strain used in this assay is rad50
This is part of a sample that, as a whole, favours compounds with a hit. Of some 79,000 tested, about 15% had one in any assay.
Answers are plain numbers, in %.

Some solved entries appear below for comparison.
compound	experimentalResult
COc1ccc(/C=C2\CCC(CN3CCOCC3)C2=O)cc1 (stereo not drawn)	65
O=C(Nc1ccccc1)O/N=C1/CCCC/C1=C\c1ccccc1	26

Attention now turns to another entry.
Indicate its recorded growth inhibition; the compound in question is NNC(=O)N/N=C(/CC1(O)C(=O)Nc2ccc(Br)cc21)c1ccccc1 (stereo not drawn) -1

----------
Assay: NCI Yeast Anticancer Drug Screen. Data for the rad50 strain (AID 155);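 note: 0% = growth of vehicle-only cultures of the same strain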
Details: S. cerevisiae rad50 strain growth inhibition; at 50.0 µM
The panel holds about 79,000 compounds, 15% with a hit somewhere; the sample as a whole holds those more often. Active and inactive are the calls of the source. No stated cut-off is given here; in the data, active means growth inhibition above about 70%; inactive means the rest.
Just give me one of these, please: active, inactive

These recorded examples may help you get a feel for the data.
compound	groupLabel
N#CSc1ccc(O)c2ccccc12	active
S=C(NC/C(Br)=C/Br)Nc1cccc2ccccc12	active
CC1SC2(C(=O)Nc3ccc(Br)cc32)N(c2ccc(Cl)cc2)C1=O (stereo unspecified)	inactive

Hello, I am checking results. What call was entered for CC(C)C1=CC(=O)C(C)(C2C(O)CC3(C)C4CC=C5C(CCC(O)C5(C)C)C4(C)C(=O)CC23C)O1 (stereo unspecified) ? active

How did this test come out for `CC(C)(C)CC(=O)O` ? inactive

Give the logged outcome of this assay for the following compound: `CCCCCCCCCCCCCCCC[N+](C)(C)CC(=O)O` inactive

----------
Hi there, I'd appreciate the recorded growth inhibition for every entry that follows.
Test: NCI Yeast Anticancer Drug Screen. Data for the mec2-1 strain (AID 157)
Conditions: S. cerevisiae mec2-1 strain, at 5.0 µM (retest, dose inferred, filed as 0.5), active compounds read high
Compounds without any hit were thinned out: in the full panel of roughly 79,000, 15% have a hit.
Give bare numbers, in %.

Take a look at these entries with their results.
compound	growth inhibition, %
CC(=O)OCC1OC(OC2C=C(O[Si](C)(C)C)C[C@H]3C(=O)C=CC(=O)[C@@H]23)C(OC(C)=O)C(OC(C)=O)C1OC(C)=O (some centres undefined)	1
Cc1ccc(/C=N/NC(N)=S)cc1C	-4
CC(=O)CCC(Br)(CCC(Br)(CCC(C)=O)[N+](=O)[O-])[N+](=O)[O-] (centres undefined)	8
Cc1cc(O)c(C(=O)/C=C/c2cccnc2)c(=O)[nH]1	-3
Cc1ccc(S(=O)(=O)CC2(Br)CCc3ccccc3C2=O)cc1 (centres undefined)	31

Please give growth inhibition for each item listed below.
1. CN(C)c1ccc(/C=N/N=C(/C#N)[S][Sn]([S]/C(C#N)=N/N=C/c2ccc(N(C)C)cc2)([c]2ccccc2)[c]2ccccc2)cc1
2. CCN(CCN1C(=O)C2CCCCC2C1=O)c1ccc(N=O)c(C)c1 (centres undefined)
3. CC(O)(c1ccccc1)c1ccccc1S(=O)(=O)Nc1ccccc1 (centres undefined)
4. CCCCCCCCCCCCCC/[N+]([O-])=C/c1ccc([N+](=O)[O-])o1

1
66
6
2

----------
Assay: NCI Yeast Anticancer Drug Screen. Data for the cln2 rad14 strain (AID 165);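 note: 0% = growth equal to vehicle treated cultures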
Settings: S. cerevisiae cln2 rad14 strain, at 50.0 µM, active compounds read high
Description: Growth inhibition of yeast strains with defined genetic alterations is measured as a screen for potential anti-cancer activity. Selected strains with alterations in DNA damage repair or cell cycle control were exposed to compounds and growth inhibition was measured relative to vehicle treated controls. The strain used in this assay is cln2 rad14
This is part of a sample that, as a whole, favours compounds with a hit. Of some 79,000 tested, about 15% had one in any assay.
resultType: growth inhibition (%)
One number for each entry, in %.

compound	growth inhibition (%)
CCCCCCCCCCN(CCCCCCCCCC)CC(O)c1cc(-c2ccccc2)nc2ccccc12 (stereo not drawn)	-18.1
Cc1cc(Br)cc(C(=O)Cl)c1O	28.7
OC(COc1ccc(Cl)cc1)CN1CCN(c2cccc(Cl)c2)CC1 (stereo not drawn)	85.8
Cc1ccc(SCc2ccc(Cl)cc2Cl)nn1	25.9
CCCCc1ccc2nc(C)cc(N=[N+]=[N-])c2c1	94.7
O=C(O)COc1c(Cl)c(Cl)c(Cl)c(Cl)c1Cl.[Cu+2]	86
COc1cc(/C=C/C(=O)c2ccc(O)c(OC)c2)ccc1O	34.2
CCCCCCCCCCCCNC(=O)C[n+]1ccc(C(N)=O)cc1	24.6

Quick one: give me growth inhibition for each item below, same order please.
1. O=[N+]([O-])c1ccc2c(c1)/C(=N\O)c1cc(Br)ccc1-2
2. NNc1cc(Cl)ccc1Cl
3. COC(=O)C1(COCc2ccccc2)CCCC2OC21 (stereo not drawn)
4. C=C1CC(c2ccc(OCCCN3C(=O)c4ccccc4C3=O)cc2)OC1=O (stereo not drawn)

35.4
91.8
-2.55
29.1

----------
Test: NCI Yeast Anticancer Drug Screen. Data for the cln2 rad14 strain (AID 165);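 note: 0% = growth equal to vehicle treated cultures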
Conditions: S. cerevisiae cln2 rad14 strain, at 50.0 µM
This is part of a sample that, as a whole, favours compounds with a hit. Of some 79,000 tested, about 15% had one in any assay. The source made the active and inactive calls. No stated cut-off is given here; in the data, active means growth inhibition above about 70%; inactive means the rest.
One label from this list, please: active, inactive

compound	groupLabel
Nc1nc(SCc2ccccc2)c2ncn(CCCl)c2n1	active
CCN(CC)CC(O)CNc1cc(C)nc(/N=C(\N)Nc2ccc(Cl)c(Cl)c2)n1 (stereo not drawn)	inactive
Oc1ccc2oc3ccccc3c2c1	active
CCC#CC(O)(C(=O)OCC)C1CCCC1 (stereo not drawn)	inactive
Clc1cc2ccccc2c2ccccc12	inactive

API: the following record is the query input.
Fill in: this test's call for `CN(C)N=Nc1ccc(NC(N)=O)cc1` is ___ inactive

----------
Assay: NCI Yeast Anticancer Drug Screen. Data for the mec2-1 strain (AID 157)
Settings: S. cerevisiae mec2-1 strain, at 50.0 µM (retest, dose inferred, filed as 5.0), active compounds read high
The panel holds about 79,000 compounds, 15% with a hit somewhere; the sample as a whole holds those more often.
resultType: growth inhibition (%)
Give bare numbers, in %.

Known growth inhibition results, listed for orientation:
compound	outputUnit	growth inhibition
CCOC(=O)CC1=NC(=Nc2ccc(Cl)c(Cl)c2)SC1	%	98
COc1ccccc1/C=C1\C=Cc2ccccc21	%	-1
O=S1(=O)CCc2ccccc2C(Br)C1Br (stereo not drawn)	%	99
CN(/N=C/c1ccc(C(=O)O)cc1)C1=NCCCCN1	%	25
N#CCN1CCCCCc2ccccc21	%	-18
C(=C/c1cnnc2ccccc12)/c1ccccn1	%	43
Cc1cccc2c1NC(c1c(C)[nH]c3ccccc13)C2 (stereo not drawn)	%	5
CC1=C(C(=O)NCc2ccccc2)C(c2ccccc2[N+](=O)[O-])C(C(=O)NCc2ccccc2)=C(C)N1	%	9
C1=C(c2ccccc2)C(=Nc2ccccc2)SC1=Nc1ccccc1	%	100
CN1CCN(CC(=O)c2c(-c3ccccc3)[nH]c3ccccc23)CC1	%	1

For each of the items listed, what is its growth inhibition?
1. [N-]=[N+]=Nc1c(-c2ccccc2)c(=O)n(-c2ccccc2)c2ccccc12
2. CC1=C(C(=O)Nc2cccc3ccccc23)C(c2cccc([N+](=O)[O-])c2)C(C(=O)Nc2cccc3ccccc23)=C(C)N1
3. C1CNC(CCNCCSCCNCCC2=NCCN2)=N1
4. O=C(/C=C\c1cccc2ccccc12)c1ccccn1
5. O=[N+]([O-])c1cccc(Cl)c1C(Nc1nncs1)Nc1nncs1
6. COc1ccc(C2(O)c3ccccc3C(=O)C2c2ccccn2)cc1 (stereo not drawn)
7. CC(C(=O)c1ccc(Cl)cc1)C1OC(=O)C(Cl)=C1Cl (stereo not drawn)

94
50
75
97
41
-5
51

State its growth inhibition: `O=C(O)/C=C/c1ccc2c(c1)CC1(Cc3ccccc3C1)C2` 90

Origin of values: PubChem BioAssay (NCI)
